INHIBITION reference
system: Plasmodium berghei; experiment: Screen against P. berghei liver stage (PbLuc), transformed with Luciferase, at 10uM; assay type: functional, HepG2; settings: tested at 10 uM
Out of some 69,000 compounds screened, about 8,600 (12%) showed an effect of 50% or more. Shown is part of a subset that was picked to be rich in strong results.
Give the quantity in %, number only.

Any idea what its INHIBITION is? The compound is CC(C)C(=O)N1CCc2c(CN(C)Cc3ccco3)cncc2C1
-11.2

What about COCC[C@]1(O)CCN(CC(=O)NCc2ccccc2C)C[C@H]1C ?
46.3

Could you do the same for Cc1cc(S(=O)(=O)N2CCc3ccc(F)cc32)cc(C(=O)O)c1C , please?
61.3

Further, for Cc1cccc(CN2C(=O)CCC23CCN(C(=O)N2CCCC2)CC3)n1 ?
18.6

Also CC(C)N1CCCC(C(=O)N2CCN(c3cccc(C(=O)O)c3)CC2)C1 (stereo not given) ?
21.2

###

Entries and their INHIBITION values follow.
tested on: Plasmodium berghei; experiment: Screen against P. berghei liver stage (PbLuc), transformed with Luciferase, at 10uM; format: functional, HepG2; conditions: tested at 10 uM
Hit rate of the full screen: of about 69,000 compounds, about 8,600 (12%) showed an effect of 50% or more. The sample as a whole holds a higher share of strong results than the screen did.
Give your result in % as a bare value.

[[record]]
compound = "Cc1noc([C@@H]2C[C@H]3OCC[C@H]3N(CC3CCCC3)C2)n1"
val = 29.9

[[record]]
compound = "CC(C)C1CN(C(=O)c2ccn(C)c(=O)c2)c2ccccc2N1 (stereo not given)"
val = -36.7

[[record]]
compound = "CS(=O)(=O)N1CCCC(c2nc(-c3ccccc3)c[nH]2)C1 (stereo not given)"
val = 50.4

[[record]]
compound = "O=C(c1ccnnc1)N1C[C@H](Oc2ccccn2)[C@H]2OCCC[C@H]21"
val = -15.9

[[record]]
compound = "Cc1noc([C@H]2C[C@H]3OCC[C@H]3N(Cc3scnc3C)C2)n1"
val = 0.777

[[record]]
compound = "CCN(C)S(=O)(=O)N1CCCC(c2cccc(C(=O)O)c2)C1 (stereo not given)"
val = -5.38


Recorded INHIBITION of Cc1noc([C@@H]2C[C@H]3OCC[C@H]3N(Cc3cc(C)c(C)o3)C2)n1 , please.
57.9

What about this compound? Cc1cccc(CN2C(=O)C[C@@H]3[C@@H]2CCN3Cc2ccsc2)n1
46.9

Next up: c1ccc(CCc2n[nH]c(C3CCC3)n2)cc1
-31.9

Lookup N#Cc1ccc(N2CCC3(CCC(=O)N3CCN3CCCC3)CC2)nc1
68.4

###

INHIBITION values for the molecules below.
system: Plasmodium berghei; assay: Screen against P. berghei liver stage (PbLuc), transformed with Luciferase, at 10uM; format: functional, HepG2; details: tested at 10 uM
The campaign covered roughly 69,000 compounds. About 8,600 (12%) showed an effect of 50% or more. For the sample, strong results were picked, then their nearest neighbours and some compounds at random.
Return type: number; implicit unit %.

Solved entries:
[[record]]
molecule = "Cc1nnc2n1CCN(Cc1nc3c(F)cccc3[nH]1)C2"
unit_of_measure = "%"
val = -43.5

[[record]]
molecule = "Cc1nc(-n2cnnc2)ccc1-c1cccc2c1CCNC2"
unit_of_measure = "%"
val = 61.1

[[record]]
molecule = "COc1ccc(C(=O)N2CCCC(n3cncn3)C2)nn1 (stereo not given)"
unit_of_measure = "%"
val = 8.64

[[record]]
molecule = "c1cc(CN2CCc3cncnc3C2)c2c(c1)OCCO2"
unit_of_measure = "%"
val = 41.6


Returns the measured INHIBITION for the input molecule. Input: Cc1csc(NC(=O)NCCCN2CCC(C(N)=O)CC2)n1
-21.1

###

tested on: Plasmodium berghei; test: Screen against P. berghei liver stage (PbLuc), transformed with Luciferase, at 10uM; assay type: functional, HepG2; conditions: tested at 10 uM
Out of some 69,000 compounds screened, about 8,600 (12%) showed an effect of 50% or more. Many of the other results were omitted from the sample, so strong results are more common in it than they were.
Property: INHIBITION; scope: individual compounds
// units = %; emit number, no label

A selection of reference data follows.
[[record]]
compound = "CCOc1ccc(S(=O)(=O)N(C)Cc2cnn(CC)c2)cc1"
tgt = "Plasmodium berghei"
unit_of_measure = "%"
val = 55.7

[[record]]
compound = "COc1ncc(-c2ccc(O)cc2)c(OC)n1"
tgt = "Plasmodium berghei"
unit_of_measure = "%"
val = 27.6

[[record]]
compound = "CNC(=O)C1CCC2(CCN(c3nncs3)CC2)CO1 (centres undefined)"
tgt = "Plasmodium berghei"
unit_of_measure = "%"
val = 61.9

[[record]]
compound = "Cc1cc(C2CCCN(CCc3ccccn3)C2)n[nH]1 (centres undefined)"
tgt = "Plasmodium berghei"
unit_of_measure = "%"
val = -0.0706

[[record]]
compound = "CCn1cc(CN(C)S(=O)(=O)c2ccc(Cl)cc2)cn1"
tgt = "Plasmodium berghei"
unit_of_measure = "%"
val = -64.7


Find INHIBITION (Plasmodium berghei) for the entry O=C(Cc1cn2ccccc2n1)N1CCCC(n2ccnc2)C1 (centres undefined)
-43.6

For CCC[C@@H]1CN(C(=O)c2cc(-c3cccs3)n(C)n2)C[C@H]1NS(C)(=O)=O then?
18.8

Another: O=S(=O)(NCc1ccc(S(=O)(=O)N2CCCC2)s1)c1cc(Cl)cc(Cl)c1
40.6

Next record, please: COCCN1CCN(Cc2cnc(C(C)C)nc2)CC1
53.2

Now the compound O=C(C1CCC2(CCN(c3nncs3)CC2)CO1)N1CCCC1 (centres undefined)
57.1

Then NC(=O)c1cc(C2CCCN(CCc3ccc4c(c3)CCO4)C2)n[nH]1 (centres undefined) ?
74.3

Follow-up entry: COCCCn1ccc(NCc2ccc(NC(C)=O)cc2)n1
19.7

Likewise for CCc1ncc(CN2CCN(CCOC)CC2)cn1 ?
11.1

Another compound: CC(C)NC(=O)N1CCC2(COCc3cnc(-c4cccnc4)nc32)C1 (centres undefined)
38.1

###

Parameter INHIBITION: see the listing below.
system: Plasmodium berghei; assay: Screen against P. berghei liver stage (PbLuc), transformed with Luciferase, at 10uM; type: functional, HepG2; details: tested at 10 uM
Screen size: about 69,000 compounds; about 8,600 (12%) showed an effect of 50% or more. This excerpt belongs to a sample that is enriched for strong results.
Your answer should be a plain number; it is taken to be in %.

[[record]]
compound = "CCNc1nnc(SCc2nnc(C(C)(C)C)o2)s1"
val = -7.93

[[record]]
compound = "CCNc1nc(-c2cccnc2)c(-c2ccnc(N3CCCC3)n2)s1"
val = 48.6

[[record]]
compound = "CCCN1CCN(C(=O)c2cc[nH]n2)[C@H]2CS(=O)(=O)C[C@H]21"
val = 53.9

[[record]]
compound = "CCCN1CCN(C(=O)c2cnccn2)[C@H]2CS(=O)(=O)C[C@H]21"
val = 51.8

[[record]]
compound = "Cc1nc(CN2CC3(CCN(c4cnccn4)C3)CC2=O)cs1 (stereo not given)"
val = 35.8

[[record]]
compound = "CCCN1CCN(C(=O)c2cccc(C)n2)[C@H]2CS(=O)(=O)C[C@H]21"
val = 21.2

[[record]]
compound = "Cc1cnn(CC2CCCN2Cc2nccn2CC(F)(F)F)c1 (stereo not given)"
val = -10.1

[[record]]
compound = "c1csc(CN2CCC3(CC2)CCN(CC2CCOCC2)C3)n1"
val = -8.85

[[record]]
compound = "CC(C)n1cc(S(=O)(=O)N2CCCC(N3CCCCC3)C2)cn1 (stereo not given)"
val = 2.4

[[record]]
compound = "Cc1ncc(CN2CCN(C(=O)N(C)C)[C@@H]3CS(=O)(=O)C[C@@H]32)cn1"
val = 31.6


Param readout= INHIBITION; system= Plasmodium berghei; entry= Cn1cccc1C(=O)N1CCC2(CC1)CN(c1cncnc1)C(=O)CO2 ; returns value.
11.4

Also Cc1cc(=O)n(CC(=O)NCC2CCCO2)c(-c2ccc(F)cc2)n1 (stereo not given) , if possible.
50.1

Would you kindly repeat that for CCOC(=O)C(C)Nc1ccc(CCN2CCOCC2)cc1 (stereo not given) ?
-30.1

Same thing, different compound: CN(C)Cc1cn2c(n1)CN(CC1CCCC1)CC2
29

Would you mind doing c1ccc(CN2Cc3[nH]nc(COCC4CC4)c3C2)nc1 as well?
30.5

###

tested on: Plasmodium berghei; experiment: Screen against P. berghei liver stage (PbLuc), transformed with Luciferase, at 10uM; type: functional, HepG2; conditions: tested at 10 uM
Hit rate of the full screen: of about 69,000 compounds, about 8,600 (12%) showed an effect of 50% or more. What follows is part of a selection rich in strong results, with near analogues and random picks from the rest.
Property: INHIBITION (%)
Write the value in % as a bare number.

[[record]]
compound = "CCC(=O)Nc1ccc(C(C)Nc2nc3c(cnn3C)c(=O)[nH]2)cc1 (stereo not drawn)"
property = "INHIBITION"
unit_of_measure = "%"
val = 28.7

[[record]]
compound = "OCCN(Cc1nc(-c2ccc3c(c2)OCO3)no1)Cc1cccs1"
property = "INHIBITION"
unit_of_measure = "%"
val = 17.6

[[record]]
compound = "CC(C)Nc1cc(N2CCCC3(CN(C)C(=O)O3)C2)ncn1 (stereo not drawn)"
property = "INHIBITION"
unit_of_measure = "%"
val = 17.4

[[record]]
compound = "CN1CC2(CCCN(c3cnccn3)C2)OC1=O (stereo not drawn)"
property = "INHIBITION"
unit_of_measure = "%"
val = 61

[[record]]
compound = "O=C(NCC1(COc2cnccn2)C[C@@H](O)[C@@H](O)C1)C1CCCC1 (stereo partly drawn)"
property = "INHIBITION"
unit_of_measure = "%"
val = -15.7


Name the reported INHIBITION value associated with the compound O=C(NC[C@@H]1CCCO1)c1cc(Br)cnc1N1CCCCC1
20.4

Repeat with Cc1cc(N2CCCC3(CN(C)C(=O)O3)C2)c2cc3c(cc2n1)OCO3 (stereo not drawn)
28.6

Next compound up: Cc1nc(C)n(CC2CN(Cc3nccs3)Cc3nccn3C2)n1 (stereo not drawn)
8.03

And for O=C([C@H]1C[C@H]2OCC[C@H]2N(CCc2ccccc2)C1)N1CCCO1 ?
43.9

And for Fc1cccc(CN2CCC3(CCCN3c3ncccn3)CC2)c1 ?
42.4

Now give it for CNC(=O)C1(C)CCCN(c2cnccn2)C1 (stereo not drawn) too.
-26.2

Next compound up: Cc1cc(S(C)(=O)=O)c(C)c(S(=O)(=O)NCC2CCC2)c1
54.4
